# target_or_test_system: T1, GLP-1 receptor
# T1 chain: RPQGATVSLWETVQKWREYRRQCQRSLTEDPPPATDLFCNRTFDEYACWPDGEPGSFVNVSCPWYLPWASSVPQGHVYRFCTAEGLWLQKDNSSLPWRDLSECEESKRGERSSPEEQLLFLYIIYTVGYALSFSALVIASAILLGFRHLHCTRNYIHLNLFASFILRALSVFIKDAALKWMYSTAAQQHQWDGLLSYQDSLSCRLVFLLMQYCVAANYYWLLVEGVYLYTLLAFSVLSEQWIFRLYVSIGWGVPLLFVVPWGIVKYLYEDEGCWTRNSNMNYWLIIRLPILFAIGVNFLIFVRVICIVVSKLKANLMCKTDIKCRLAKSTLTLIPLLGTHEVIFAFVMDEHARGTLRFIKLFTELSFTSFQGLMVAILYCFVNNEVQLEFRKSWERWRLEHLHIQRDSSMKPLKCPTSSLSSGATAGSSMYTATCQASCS
# assay_text: competition with 125I-GLP-1 on CHO/GLP-1R cells; polypeptide digested with thrombin and DPP IV first
Measured IC50 values are reported for all entries that follow.
Number in nM, nothing else.

Examples with answers:
binder | IC50 (nM)
PSLLHWTHKIPALFNPRGPHAEGTFTSDVSSYLEGQAAKEFIAWLVKGRG (ABP-LK-GLP fusion polypeptide; also called ABP-LK-GLP) [DP8.2 fusion polypeptide] | 1.9
DICLPRWGCLWEFNPRGAHAEGTFTSDVSSYLEGQAAKEFIAWLVKGRG (ABP-LK-GLP fusion polypeptide; also called ABP-LK-GLP) [M3.1 fusion polypeptide] | 2.2
LPHSHRAHSLPPFNPRGAHAEGTFTSDVSSYLEGQAAKEFIAWLVKGRG (ABP-LK-GLP fusion polypeptide; also called ABP-LK-GLP) [M6.1 fusion polypeptide] | 2.2
PSLLHWTHKIPALFNPRGAHAEGTFTSDVSSYLEGQAAKEFIAWLVKGRG (ABP-LK-GLP fusion polypeptide; also called ABP-LK-GLP) [DP8.1 fusion polypeptide] | 2.2
NICLPRWGCLWDFNPRGPHAEGTFTSDVSSYLEGQAAKEFIAWLVKGRG (ABP-LK-GLP fusion polypeptide; also called ABP-LK-GLP) [M4.2 fusion polypeptide] | 2.2

Now consider a different binder.
The binder identified as LPHSHRAHSLPPFNPRPPHAEGTFTSDVSSYLEGQAAKEFIAWLVKGRG (ABP-LK-GLP fusion polypeptide; also called ABP-LK-GLP) [PP6.2 fusion polypeptide] registered its IC50 at 2.3
